Published log10(IC50) for UniProtKB P35348, assembled from different documents, is shown next.
PROPERTY_LABEL: log10(IC50) (log10 of the value in nM)

{"MOLECULE": "CN(C)c1nc(N[C@H]2CC[C@@H](NC(=O)c3ccc(F)c(F)c3)CC2)nc2ccccc12", "log10(IC50)": 2.48}
{"MOLECULE": "c1ccc(-c2ccccc2OCc2c[nH]cn2)cc1", "log10(IC50)": 2.48}
{"MOLECULE": "CSc1ccccc1NCc1cnc[nH]1", "log10(IC50)": 2.23}
{"MOLECULE": "COc1ccccc1N1CCN(CCc2ccc(CN3C(=O)c4ccccc4C3=O)cc2)CC1", "log10(IC50)": 1.48}
{"MOLECULE": "Cc1ccnc(-c2ccccc2OCC2=NCCN2)c1", "log10(IC50)": 3.11}
{"MOLECULE": "O=C1c2ccccc2C(=O)N1Cc1ccc(CCN2CCN(c3ccc(Cl)cc3)CC2)cc1", "log10(IC50)": 2.74}
{"MOLECULE": "O=C(NC1CC1)c1ccccc1NCC1=NCCN1", "log10(IC50)": 3.02}
{"MOLECULE": "O=C1c2ccccc2C(=O)N1Cc1ccc(CCN2CCN(c3ccc(F)cc3)CC2)cc1", "log10(IC50)": 2.36}
{"MOLECULE": "COc1ccc2c3c([nH]c2c1)CN1CCc2cc4c(cc2C1C3)OCO4 (stereo unspecified)", "log10(IC50)": 2.77}
{"MOLECULE": "O=C1c2ccccc2C(=O)N1Cc1ccc(CCN2CCN(c3ccccc3F)CC2)cc1", "log10(IC50)": 1.98}

---

Please find below IC50 measurements for Alpha-1A adrenergic receptor (Homo sapiens, UniProt P35348), combined from several publications.
PROPERTY_LABEL: IC50 (nM)

{"COMPOUND": "CCN(CC)C(=O)c1ccccc1OCc1c[nH]cn1", "ASSAY_TARGET": "Alpha-1A adrenergic receptor (Homo sapiens, UniProt P35348)", "U": "nM", "COMPARATIVE_SIGN": ">", "READOUT_VALUE": 30200}
{"COMPOUND": "c1ccc2c3c([nH]c2c1)CN1CCc2cc4c(cc2[C@@H]1C3)OCO4", "ASSAY_TARGET": "Alpha-1A adrenergic receptor (Homo sapiens, UniProt P35348)", "U": "nM", "COMPARATIVE_SIGN": "=", "READOUT_VALUE": 57.4}
{"COMPOUND": "Cc1cc(C)c2[nH]ccc2c1CN1CCCCC1c1ccc(C(=O)O)cc1 (centres undefined)", "ASSAY_TARGET": "Alpha-1A adrenergic receptor (Homo sapiens, UniProt P35348)", "U": "nM", "COMPARATIVE_SIGN": ">", "READOUT_VALUE": 30000}
{"COMPOUND": "c1c[nH]c(-c2ccccc2OCC2=NCCN2)c1", "ASSAY_TARGET": "Alpha-1A adrenergic receptor (Homo sapiens, UniProt P35348)", "U": "nM", "COMPARATIVE_SIGN": "=", "READOUT_VALUE": 32.4}

---

Listed below are compounds with IC50 for Alpha-1A adrenergic receptor (Homo sapiens, UniProt P35348), each taken from published literature.

{"COMPOUND": "CCN(C)C(=O)c1ccccc1NCC1=NCCN1", "COMPARATIVE_SIGN": "=", "IC50, µM": 2.04}
{"COMPOUND": "c1ccc(Cc2nc3c(c(Nc4ccccc4)n2)CCNCC3)cc1", "COMPARATIVE_SIGN": "=", "IC50, µM": 1.39}
{"COMPOUND": "Cc1cc(N(C)C)nc(N[C@H]2CC[C@@H](NC(=O)c3cc(C(F)(F)F)cc(C(F)(F)F)c3)CC2)n1", "COMPARATIVE_SIGN": "=", "IC50, µM": 1.32}
{"COMPOUND": "CCC1c2[nH]c3ccccc3c2CC2c3cc4c(cc3CCN21)OCO4 (stereo unspecified)", "COMPARATIVE_SIGN": ">", "IC50, µM": 10}
{"COMPOUND": "COc1cc2cc[n+]3c(c2cc1OC)Cc1ccc(OC)c(OC)c1C3", "COMPARATIVE_SIGN": "=", "IC50, µM": 7.6}
{"COMPOUND": "CCCNC(=O)c1ccccc1NCC1=NCCN1", "COMPARATIVE_SIGN": "=", "IC50, µM": 0.282}
{"COMPOUND": "Cc1cnc(N[C@H]2CC[C@@H](CNC(=O)c3ccc(F)c(F)c3)CC2)nc1N(C)C", "COMPARATIVE_SIGN": "=", "IC50, µM": 3.6}
{"COMPOUND": "CSc1ccccc1NCC1=NCCN1", "COMPARATIVE_SIGN": "=", "IC50, µM": 0.107}
{"COMPOUND": "O=C1c2ccccc2C(=O)N1Cc1ccc(CCN2CCN(c3ccc(Br)cc3)CC2)cc1", "COMPARATIVE_SIGN": "=", "IC50, µM": 3.42}
{"COMPOUND": "O=C1c2ccccc2C(=O)N1Cc1ccc(CCN2CCN(Cc3ccccc3)CC2)cc1", "COMPARATIVE_SIGN": "=", "IC50, µM": 1.2}
{"COMPOUND": "c1ccc(-c2ccccc2OCC2=NCCN2)cc1", "COMPARATIVE_SIGN": "=", "IC50, µM": 0.0275}

---

pIC50: −log10 of the molar value.
Below, pIC50 values reported for Alpha-1A adrenergic receptor (Homo sapiens, UniProt P35348) across several publications.

{"COMPOUND": "Cc1cnc(N[C@H]2CC[C@@H](CNC(=O)c3cc(C(F)(F)F)cc(C(F)(F)F)c3)CC2)nc1N(C)C", "ASSAY_TARGET": "Alpha-1A adrenergic receptor (Homo sapiens, UniProt P35348)", "COMPARATIVE_SIGN": "=", "pIC50": 5.49}
{"COMPOUND": "Cc1ccc(C(=O)N[C@H]2CC[C@@H](Nc3ncc(C)c(N(C)C)n3)CC2)cc1", "ASSAY_TARGET": "Alpha-1A adrenergic receptor (Homo sapiens, UniProt P35348)", "COMPARATIVE_SIGN": "<", "pIC50": 5.00}
{"COMPOUND": "COc1ccc2c(c1)CCN1Cc3[nH]c4ccccc4c3CC21 (configuration not stated)", "ASSAY_TARGET": "Alpha-1A adrenergic receptor (Homo sapiens, UniProt P35348)", "COMPARATIVE_SIGN": "=", "pIC50": 6.26}
{"COMPOUND": "O=C(/C=C/c1ccc(Cl)cc1Cl)NCCc1ccc(O)cc1", "ASSAY_TARGET": "Alpha-1A adrenergic receptor (Homo sapiens, UniProt P35348)", "COMPARATIVE_SIGN": "<", "pIC50": 4.00}
{"COMPOUND": "CN(C)CC1CC2c3ccccc3Cc3ccncc3N2O1 (configuration not stated)", "ASSAY_TARGET": "Alpha-1A adrenergic receptor (Homo sapiens, UniProt P35348)", "COMPARATIVE_SIGN": "=", "pIC50": 6.40}
{"COMPOUND": "N#C/C(=C\\c1ccc(O)c(O)c1)C(=O)NCCCCc1ccccc1", "ASSAY_TARGET": "Alpha-1A adrenergic receptor (Homo sapiens, UniProt P35348)", "COMPARATIVE_SIGN": "<", "pIC50": 4.00}
{"COMPOUND": "Cc1cc(N(C)C)nc(N[C@H]2CC[C@@H](NC(=O)c3ccc(Cl)c(Cl)c3)CC2)n1", "ASSAY_TARGET": "Alpha-1A adrenergic receptor (Homo sapiens, UniProt P35348)", "COMPARATIVE_SIGN": "<", "pIC50": 5.00}
{"COMPOUND": "N#Cc1ccccc1N1CCN(CCc2ccc(CN3C(=O)c4ccccc4C3=O)cc2)CC1", "ASSAY_TARGET": "Alpha-1A adrenergic receptor (Homo sapiens, UniProt P35348)", "COMPARATIVE_SIGN": "=", "pIC50": 7.44}
{"COMPOUND": "[11CH3]Oc1cccc2c1CCCC2CCCN1CCN(c2ccccc2)CC1 (configuration not stated)", "ASSAY_TARGET": "Alpha-1A adrenergic receptor (Homo sapiens, UniProt P35348)", "COMPARATIVE_SIGN": "=", "pIC50": 7.37}
{"COMPOUND": "Fc1ccc2[nH]c3c(c2c1)CC1c2cc4c(cc2CCN1C3)OCO4 (configuration not stated)", "ASSAY_TARGET": "Alpha-1A adrenergic receptor (Homo sapiens, UniProt P35348)", "COMPARATIVE_SIGN": "=", "pIC50": 6.60}
{"COMPOUND": "COc1ccc(C2c3[nH]c4ccccc4c3CC3c4ccc(OC)cc4CCN32)cc1 (configuration not stated)", "ASSAY_TARGET": "Alpha-1A adrenergic receptor (Homo sapiens, UniProt P35348)", "COMPARATIVE_SIGN": "<", "pIC50": 5.00}
{"COMPOUND": "N=C(Nc1ccc2c(c1)CCN2C1CCNCC1)c1cccs1", "ASSAY_TARGET": "Alpha-1A adrenergic receptor (Homo sapiens, UniProt P35348)", "COMPARATIVE_SIGN": "=", "pIC50": 5.72}
{"COMPOUND": "Cc1ccoc1-c1ccccc1OCC1=NCCN1", "ASSAY_TARGET": "Alpha-1A adrenergic receptor (Homo sapiens, UniProt P35348)", "COMPARATIVE_SIGN": "=", "pIC50": 7.46}
{"COMPOUND": "CCCCOc1cc2c(cc1OC)CCN1Cc3[nH]c4ccc(OC)cc4c3CC21 (configuration not stated)", "ASSAY_TARGET": "Alpha-1A adrenergic receptor (Homo sapiens, UniProt P35348)", "COMPARATIVE_SIGN": "=", "pIC50": 5.64}
{"COMPOUND": "COc1cccc2[nH]c3c(c12)CC1c2cc4c(cc2CCN1C3)OCO4 (configuration not stated)", "ASSAY_TARGET": "Alpha-1A adrenergic receptor (Homo sapiens, UniProt P35348)", "COMPARATIVE_SIGN": "=", "pIC50": 6.69}
{"COMPOUND": "Cc1cnc(N[C@H]2CC[C@@H](NC(=O)c3ccc(F)cc3)CC2)nc1N(C)C", "ASSAY_TARGET": "Alpha-1A adrenergic receptor (Homo sapiens, UniProt P35348)", "COMPARATIVE_SIGN": "=", "pIC50": 5.12}
{"COMPOUND": "Cc1cnc(N[C@H]2CC[C@@H](NC(=O)c3ccc(Cl)cc3)CC2)nc1N(C)C", "ASSAY_TARGET": "Alpha-1A adrenergic receptor (Homo sapiens, UniProt P35348)", "COMPARATIVE_SIGN": "<", "pIC50": 5.00}
{"COMPOUND": "CCCNC(=O)c1ccccc1NCc1c[nH]cn1", "ASSAY_TARGET": "Alpha-1A adrenergic receptor (Homo sapiens, UniProt P35348)", "COMPARATIVE_SIGN": "=", "pIC50": 7.11}
{"COMPOUND": "CNC(=O)c1ccccc1NCC1=NCCN1", "ASSAY_TARGET": "Alpha-1A adrenergic receptor (Homo sapiens, UniProt P35348)", "COMPARATIVE_SIGN": "=", "pIC50": 6.67}
{"COMPOUND": "Cc1ccc(N2CCN(CCc3ccc(CN4C(=O)c5ccccc5C4=O)cc3)CC2)cc1", "ASSAY_TARGET": "Alpha-1A adrenergic receptor (Homo sapiens, UniProt P35348)", "COMPARATIVE_SIGN": "=", "pIC50": 8.69}
{"COMPOUND": "c1ccc(COc2ccc3[nH]c4c(c3c2)CC2c3cc5c(cc3CCN2C4)OCO5)cc1 (configuration not stated)", "ASSAY_TARGET": "Alpha-1A adrenergic receptor (Homo sapiens, UniProt P35348)", "COMPARATIVE_SIGN": "=", "pIC50": 5.54}
{"COMPOUND": "c1ccc2c3c([nH]c2c1)CN1CCc2cc4c(cc2C1C3)OCO4 (configuration not stated)", "ASSAY_TARGET": "Alpha-1A adrenergic receptor (Homo sapiens, UniProt P35348)", "COMPARATIVE_SIGN": "=", "pIC50": 6.90}
